The values you see were collected from PubChem BioAssay (NCI).

# Test system: K-562 leukemia
# Assay text: NCI tumour cell line growth inhibition, 48 h; in the data active = GI50 below about 0.43 µM; inactive = the rest
Returns: one label drawn from active, inactive

Prompt: For this compound, state the assay outcome: CCCCCCCCCCCCOC1C(C(COC2OC(C3COC(C)(C)O3)C3OC(C)(C)OC23)NC(=O)NS(=O)(=O)c2ccccc2)OC2OC(C)(C)OC21 (stereo not drawn)
Response: inactive

Prompt: Recorded test outcome, item `O=C(Nc1ccc2[nH]c(=S)sc2c1)Nc1ccccc1F`
Response: inactive

Prompt: Assay outcome for `CC[C@@]1(OC(=O)CN)C(=O)OCc2c1cc1n(c2=O)Cc2cc3c(N)cccc3nc2-1` : what was it?
Response: active

Prompt: Which result was noted for this compound in the test: `Oc1ccccc1CNCC12CC3CC(CC(C3)C1)C2`
Response: inactive

Prompt: // return assay outcome for CCN1C(=O)N(c2ccccc2)C2NC(=S)N(/N=C/C=C/c3ccccc3)C21 (stereo not drawn)
Response: active

Prompt: Recorded call for COC(=O)CCC1CCC(c2cc(F)ccc2F)(S(=O)(=O)c2ccc(Cl)cc2)CC1 (stereo not drawn) ?
Response: inactive

Prompt: Which outcome did this test record for the compound `COc1ccc(-n2cc(-c3cc(OC)c(OC)c(OC)c3)nc2SCc2ccccc2)cc1OC` ?
Response: inactive

Prompt: Assay outcome for `C=C1C(=O)O[C@H]2[C@H]1CCC(/C=N/c1ncc(Br)cc1N)=C\CC[C@@]1(C)O[C@@H]21` : what was it?
Response: inactive
